tested on: MDAMB453; test: GRmax, 72 h; higher = less effect;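 further: breast cell lines in 384-well plates, nine doses across a 10^4 range, Dye Drop imaging of viable cells vs DMSO and time-zero plates, GR 0 means no net growth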
# cutoff -0.5 GR applies to GRmax, 72 h; >= gives True, < gives False

>  <COMPOUND>
CNCc1ccc(-c2[nH]c3cc(F)cc4c3c2CCNC4=O)cc1 [Rucaparib] (max 10 µM)

>  <ASSIGNED CATEGORY>
True

$$$$
>  <COMPOUND>
CCN1CCN(Cc2ccc(Nc3ncc(F)c(-c4cc(F)c5nc(C)n(C(C)C)c5c4)n3)nc2)CC1 (max 10 µM)

>  <ASSIGNED CATEGORY>
False

$$$$
>  <COMPOUND>
CC[C@@]1(O)C(=O)OCc2c1cc1n(c2=O)Cc2cc3c(CN(C)C)c(O)ccc3nc2-1 [Topotecan] (max 10 µM)

>  <ASSIGNED CATEGORY>
False

$$$$
>  <COMPOUND>
CS(=O)(=O)N1CCN(Cc2cc3nc(-c4cccc5[nH]ncc45)nc(N4CCOCC4)c3s2)CC1 [Pictilisib/GDC0941] (max 10 µM)

>  <ASSIGNED CATEGORY>
True

$$$$
